Cited source for all entries: patent US20070179295A1

assay: logP determination through HPLC (EEC directive 79/831 Annex V. A8, gradient method, acetonitrile/0.1% aqueous phosphoric acid); type: physicochemical; settings: Table 1, compounds of formula (I); HPLC gradient method, acetonitrile/0.1% aqueous phosphoric acid
Think of 3 as a floor: if logP stands on it or above, it is Satisfied; beneath it, Not satisfied.

- MOLECULE: "CC(Nc1c(-c2ncncc2Cl)c(Cl)nc2nc(C3CC3)nn12)C(F)(F)F (centres unmarked) [Example 38]"
  CATEGORY: "Not satisfied"
- MOLECULE: "CC(C)CN(C)c1c(-c2ccsc2)c(Cl)nc2nc(C3CC3)nn12"
  CATEGORY: "Satisfied"
- MOLECULE: "CC(C)CC(C)Nc1c(-c2cc(Cl)sc2Cl)c(Cl)nc2nc(C3CC3)nn12 (centres unmarked)"
  CATEGORY: "Satisfied"
- MOLECULE: "CC(C)C(C)Nc1c(-c2ncccc2C(F)(F)F)c(Cl)nc2nc(C3CC3)nn12 (centres unmarked)"
  CATEGORY: "Satisfied"
- MOLECULE: "CC(C)C(C)Nc1c(-c2ncccc2[N+](=O)[O-])c(Cl)nc2nc(C3CC3)nn12 (centres unmarked)"
  CATEGORY: "Not satisfied"
- MOLECULE: "CC(C)C(C)Nc1c(-c2ncncc2F)c(Cl)nc2nc(C3CC3)nn12 (centres unmarked)"
  CATEGORY: "Not satisfied"
